Provenance of the data: patent US20230131808A1

- Test system: Human Coronavirus 229E (hCoV-229E)
- PROTOCOL DETAILS: microbe, parasite or virus in culture
- Assay type: cell-based
pIC50: −log10 of the molar value.
MEASURE: pIC50

SMILES | OBSERVED RESULT
NC(=O)c1ncn([C@@H]2O[C@H](CO)[C@@H](O)[C@H]2O)n1 | 4.52

----------
- PROTOCOL DETAILS: Cytotoxicity in Huh7 cells without virus infection (CellTiter Glo)
- MEASUREMENT CONTEXT: human

SMILES | UNIT INFO | CC50 at 7 days
CCC(CC)COC(=O)[C@H](C)N[P@](=O)(OC[C@H]1O[C@@](C#N)(c2ccc3c(N)ncnn23)[C@H](O)[C@@H]1O)Oc1ccccc1 | µM | 17.2
